Tested on: giant foxtail
protocol text: Test B pre/postemergence giant foxtail
Format: in vivo, Setaria faberii
condition context: Preemergence, Rate 500 g/ha; scale of 0 to 10 where 0 is no effect and 10 is complete control
measured parameter: Giant foxtail plant response rating
API doc: respond with a numeric literal and nothing else, no unit.

Here is how some compounds turned out for Giant foxtail plant response rating.
>>> readout_value("C=CCCCn1c(=O)on(C(=O)N(c2ccc(F)cc2F)C(C)C)c1=O [Compound 516]")
10
>>> readout_value("Cc1c(-n2c(=O)on(C(=O)N(c3ccc(F)cc3)C(C)C)c2=O)ccc2ccccc12 [Compound 338]")
9
>>> readout_value("CCC(=O)Cn1c(=O)on(C(=O)N(c2ccc(Cl)cc2)C(C)C)c1=O [Compound 553]")
10
>>> readout_value("CC(C)N(C(=O)n1oc(=O)n(CC2CC2)c1=O)c1ccccc1 [Compound 568]")
10
>>> readout_value("CC(C)N(C(=O)n1oc(=O)n(CCc2ccccc2)c1=O)c1ccc(F)cc1F [Compound 508]")
10
>>> readout_value("COC(=O)CCCn1c(=O)on(C(=O)N(c2ccccc2)C(C)C)c1=O [Compound 572]")
7

# value lookup — system giant foxtail, readout Giant foxtail plant response rating, item CC(C)N(C(=O)n1oc(=O)n(C2CCC2)c1=O)c1ccc(Cl)cc1 [Compound 349]
10
